- Test system: UO-31 renal
- assay_summary: NCI-60 one-dose screen, 48 h (100 = growth as untreated, 0 = no growth, -100 = all killed)
- test_context: 10 µM unless noted
This is part of a sample that, as a whole, favours compounds with a hit. Of some 83,000 tested, about 20% had one in any assay.
Catalogue of growth values
The figure you give is taken to be in %; do not add the unit.

Worked cases, answers included:
O=S(=O)(c1nc(-c2ccc(Br)cc2)oc1-c1ccc(Cl)cc1)N1CCCC(O)C1 (stereo not given) :: 37.4
COc1cc(C2CC(c3cc(OC)c(OC)c(OC)c3)=Nc3c(N)nc(N)nc3N2)ccc1Oc1nc(Nc2ccc(F)cc2)nc(N(C)C)n1 (stereo not given) :: 40.3

*Q* For the compound shown here, COc1ccc([C@H]2C(C(=O)c3ccc(Cl)cc3)C3(N[C@@H]2c2ccccc2)C(=O)Nc2ccccc23)cc1 (stereo not given in full) , give the reported growth.
*A* 13.2

*Q* Please give the result for COc1ccc(C2=NN(C(=O)[C@H]3[C@@H](c4ccco4)c4sc(=O)[nH]c4S[C@@H]3C)C(c3ccc4ccccc4c3)C2)cc1 (stereo not given in full) too.
*A* 19.5

*Q* Please give the result for COc1ccc(NC(=O)Cn2c(/C=C/c3ccc([N+](=O)[O-])cc3)nc3ccccc3c2=O)cc1 too.
*A* 22.9

*Q* Please give the result for O=C(N/N=C/c1ccsc1)c1[nH]c2ccc(Br)cc2c1-c1ccccc1 too.
*A* -49.4

*Q* Please give the result for COc1ccc(-c2cc(C(=O)Oc3ccc(C=O)cc3OC)nn2-c2ccc(S(C)(=O)=O)cc2)cc1 too.
*A* 78.2

*Q* Please give the result for COC(=O)c1ccc(-c2c(-c3ccccc3)c(F)c3oc(C(=O)OC)c(N)c3c2-c2ccccc2)cc1 too.
*A* 88.6

*Q* Please give the result for CCCCC[C@@H]1C/C=C(\C)[C@@H](O)C(C)(C)C(=O)[C@@H](C)/C=C(\C)[C@@H]2C[C@H](O)C[C@](O)(CC(=O)O1)O2 too.
*A* 20.4

*Q* Please give the result for Fc1ccc(Nc2nnc(-c3c[nH]c4ccccc34)o2)cc1 too.
*A* 44.4

*Q* Please give the result for O=C(NN1C(=O)/C(=C/C=C/c2ccc([N+](=O)[O-])o2)SC1=S)c1ccc([N+](=O)[O-])cc1 too.
*A* -100

*Q* Please give the result for COc1ccc(NC(=O)CSc2nnc(-c3ccc(-c4nc5ccc(Cl)cc5[nH]4)cc3)o2)cc1 too.
*A* 71.4

*Q* Please give the result for Nc1cc(-c2c[nH]c3ccc(Cl)cc23)nc2cc(-c3c[nH]c4ccccc34)nn12 too.
*A* -4.79

*Q* Please give the result for COc1cc(/C=C/C(=O)c2cnn(-c3cc(=O)[nH]c4ccc(Br)cc34)c2C)cc(OC)c1OC too.
*A* -80.7
